system: blood plate aggregation; assay: Inhibiting activity on blood plate aggregation (adenosine diphosphate-induced, turbidimetric assay on plasma of treated rats); type: in vivo; conditions: Rattus norvegicus, rats administered 100 mg/kg, read-out: percent inhibition on blood plate aggregation
recorded-metric: inhibition at 100 mg/kg (%)
Write the number in % without appending the unit.

Bench note, blood plate aggregation: O=C(Nc1ccccc1)N1Cc2sccc2C(O)C1 (stereo not drawn) , inhibition at 100 mg/kg reads 89

Bench note, blood plate aggregation: CN1Cc2ccsc2C(O)C1 (stereo not drawn) , inhibition at 100 mg/kg reads 88

Bench note, blood plate aggregation: Cc1ccc(S(=O)(=O)N2Cc3sccc3C(O)C2)cc1 (stereo not drawn) , inhibition at 100 mg/kg reads 92
